# assayed.target: CyclinA2/CDK2 (Homo sapiens, UniProt P20248)
# Construct: purchased CRELUX Protein Services
# test.summary: Fluorescence Polarization (FP) competitive binding assay, Cyclin A2/Cdk2;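 further: plates equilibrated two hours at room temperature before polarization reading, IC50 fitted from eight-concentration compound titration curves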
# measurement.conditions: 8 nM Cyclin A2/Cdk2, 2 nM FAM probe; average of 2-3 independent experiments; read-out: Cyclin A FP IC50
*1 amine or outer side, *2 acyl side, *3 side chain or, on linkers, in order; H or OH if unused. Where a SMILES comes first, the peptide text is derived from it. Bridges are numbered along the chain shown (N, C = ends). [ ]: non-standard residue; d: D form. The star is where a group is joined. X153 = CN([C@@H](Cc1cc(F)ccc1-c1cnn(C2CCOCC2)c1)C(=O)[*:2])[*:1]; NMehhhLys(Me) = CN([C@@H](CCCCCCCN(C)[*:3])C(=O)[*:2])[*:1]; X44 = Cc1nnc(-c2ccc(Cl)cc2C[C@@H](C(=O)[*:2])N(C)[*:1])o1; NMe(hhhLys) = CN([C@@H](CCCCCCCN[*:3])C(=O)[*:2])[*:1]; X143 = CN([C@@H](Cc1cc(F)cc2cccnc12)C(=O)[*:2])[*:1]; cBuCO(3,3-F2-1-CF3) = O=C(C1(C(F)(F)F)CC(F)(F)C1)*; Pro(trans-4-F) = O=C(O)[C@@H]1C[C@@H](F)CN1; Gly(cPr) = N[C@H](C(=O)O)C1CC1
Rule: IC50 below 50 nM gives yes (1). Equal to or above 50 nM gives no (0).

IN: Field: below-cutoff. Rule: recorded IC50 strictly less than 50 nM. Subject: Cc1nnc(-c2ccc(Cl)cc2C[C@H]2C(=O)NCCCCCCC[C@H](N(C)C(=O)[C@@H](NC(=O)[C@@H]3C[C@@H](F)CN3C(=O)C3(C(F)(F)F)CC(F)(F)C3)C3CC3)C(=O)N[C@@H](CC(C)C)C(=O)N2C)o1 [Example 160] ({cBuCO(3,3-F2-1-CF3)}-[Pro(trans-4-F)][Gly(cPr)][NMe(hhhLys)]L[X44]; lactam 3-C)
OUT: yes (1)

IN: Given CC(C)C[C@@H]1NC(=O)[C@@H](N(C)C(=O)[C@@H](NC(=O)[C@@H]2C[C@@H](F)CN2C(=O)C2(C(F)(F)F)CC(F)(F)C2)C2CC2)CCCCCCCN(C)C(=O)[C@H](Cc2cc(F)ccc2-c2cnn(C3CCOCC3)c2)N(C)C1=O [Example 93] ({cBuCO(3,3-F2-1-CF3)}-[Pro(trans-4-F)][Gly(cPr)][NMehhhLys(Me)]L[X153]; lactam 3-C) , is recorded IC50 strictly lower than 50 nM?
OUT: yes (1)

IN: Check if IC50 falls below 50 nM for CC(C)C[C@@H]1NC(=O)[C@@H](N(C)C(=O)[C@@H](NC(=O)[C@@H]2C[C@@H](F)CN2C(=O)C2(C(F)(F)F)CC(F)(F)C2)C2CC2)CC=CCCCCN(C)C(=O)[C@H](Cc2cc(F)ccc2C2=CCC(O)CC2)N(C)C1=O (stereo partly shown) .
OUT: yes (1)

IN: Identify whether the compound `CC(C)C[C@@H]1NC(=O)[C@@H](N(C)C(=O)[C@@H](NC(=O)[C@@H]2C[C@@H](F)CN2C(=O)C2(C(F)(F)F)CC(F)(F)C2)C2CC2)CCCC=CCCNC(=O)[C@H](Cc2cc(Cl)ccc2-c2cnn(C)c2)N(C)C1=O` records IC50 below 50 nM.
OUT: no (0)

***
IN: API: query returns whether the compound falls strictly under 50 nM in IC50. Query: `CC(C)C[C@@H]1NC(=O)[C@@H](N(C)C(=O)[C@@H](NC(=O)[C@@H]2C[C@@H](F)CN2C(=O)C2(C(F)(F)F)CCC2)C2CC2)CC=CCCCCN(C)C(=O)[C@H](Cc2cc(Cl)ccc2-c2cnn(C)c2)N(C)C1=O`
OUT: yes (1)

IN: Regarding CC(C)C[C@@H]1NC(=O)[C@@H](N(C)C(=O)[C@@H](NC(=O)[C@@H]2C[C@@H](F)CN2C(=O)C2(C(F)(F)F)CC(F)(F)C2)C2CC2)CCCCCCCN(C)C(=O)[C@H](Cc2cc(F)cc3cccnc23)N(C)C1=O [Example 423] ({cBuCO(3,3-F2-1-CF3)}-[Pro(trans-4-F)][Gly(cPr)][NMehhhLys(Me)]L[X143]; lactam 3-C) , kindly confirm whether its IC50 is beneath 50 nM.
OUT: no (0)

Where do the numbers come from? From patent US20240408169A1.
